system.tested: T1, full-length human GLP1R on HEK293/CRE-Luc/hGLP1R cells (human, UniProt P43220 24-463)
T1 construct: whole, on cells
protocol: flow cytometry, hGLP1R cells
Lab note - cut at 4 nM for EC50: 1 if strictly below, -1 if not.

Some solved cases for reference:
{"binder": "REGN8070 (antibody, human IgG4 S228P, kappa, V domains shown, IgG4; Q-tag on light chain N-terminus; also called mAb 16; REGN8070 unconjugated Ab) VH: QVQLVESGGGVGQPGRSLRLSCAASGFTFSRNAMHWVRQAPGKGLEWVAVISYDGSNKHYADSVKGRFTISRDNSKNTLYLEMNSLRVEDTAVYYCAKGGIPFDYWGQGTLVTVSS VL: DIVMTQSPLSSPVTLGQPASISCRSSQSLVHFDGNTYLSWLHQRPGQPPRLLIYKISNRFSGVPDRFSGSGAGTDFTLKISRVEPEDVGVYYCMHATQFPYTFGQGTKLEIKR", "group": 1}
{"binder": "REGN8072 (antibody, human IgG4 S228P, kappa, V domains shown, IgG4; Q-tag on light chain N-terminus; also called mAb 4; REGN8072 unconjugated Ab) VH: QVQLVESGGGVVQPARSLRLSCAASGFAFSRSAMHWVRQAPGKGLEWVAVISYDGSNKYYTDSVKGRFTISRDNSKNTLYLQMNTLRAEDTALYYCAKMYTTMDSFDYWGQGTLVTVSS VL: DIQLTQSPSFLSASVGDRVTITCWASQGISSYLAWYQQKPGKAPKLLIYAASTLQSGVPSRFSGSGSGTEFTLTISSLQPEDFALYYCQQLNSYPRTFGQGTKVEIKR", "group": 1}
{"binder": "REGN8052 (antibody, V domains shown, parental antibody without Q-tag; also called parent of REGN8072) VH: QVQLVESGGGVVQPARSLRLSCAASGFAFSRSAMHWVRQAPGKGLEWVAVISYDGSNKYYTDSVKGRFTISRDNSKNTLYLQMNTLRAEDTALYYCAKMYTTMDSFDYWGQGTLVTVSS VL: DIQLTQSPSFLSASVGDRVTITCWASQGISSYLAWYQQKPGKAPKLLIYAASTLQSGVPSRFSGSGSGTEFTLTISSLQPEDFALYYCQQLNSYPRTFGQGTKVEIK", "group": 1}

## Task Please state whether EC50 is below 4 nM for H2aM30341N (antibody, V domains shown, parent of H4H30341N (REGN9278 without Q-tag); also called parent of REGN9278) VH: QVQLQQWGAGLLKPSETLSLTCAVYGGSFSGYYWSWIRQPPGKGLEWIGEINHAGSTNYNPSLKSRITISVDTSKNQFSLKLSSVTAADTAVYYCARGWYYGSGSYHRNWFDPWGQGTLVTVSS VL: EIVLTQSPGTLSLSPGERATLSCRASQSVYYSYLAWYQQKPGQAPRLLIYGASNRATGIPDRFSGSGSGTDFTLTISRLEPEDFAVYYCQQYGNSPWTFGQGTKVEIK
## Result 1

## Task What would you report for REGN8051 (antibody, V domains shown, parental antibody without Q-tag; also called parent of REGN8070) VH: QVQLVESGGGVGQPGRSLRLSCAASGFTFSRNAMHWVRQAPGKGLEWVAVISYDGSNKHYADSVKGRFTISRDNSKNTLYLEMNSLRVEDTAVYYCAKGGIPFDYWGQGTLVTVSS VL: DIVMTQSPLSSPVTLGQPASISCRSSQSLVHFDGNTYLSWLHQRPGQPPRLLIYKISNRFSGVPDRFSGSGAGTDFTLKISRVEPEDVGVYYCMHATQFPYTFGQGTKLEIK ?
## Result -1

## Task Also need H1M30345N (antibody, V domains shown) VH: EVQLVESGGGLVKPGGSLRLSCAASGFIFSRYSMNWVRQAPGKGLEWVSSMSSNSKNTYYADSVKGRFTISRDNAKNSLFLQMNTLRAEDTAVYYCARDGYTLRAFDIWGQGTMVTVSS VL: EIVLTQSPGTLSLSPGERDTLSCRASQSIAGRYVAWYQQKPGQAPRLLIYGASSRATGIPDRFSGSGSGTDFTLTISRLEPEDFAVYYCQQYGSSPWTFGQGTKVEIK , thanks.
## Result 1

## Task And for REGN9278 (antibody, human IgG4 S228P, kappa, V domains shown, IgG4; Q-tag on light chain N-terminus; also called mAb 19; REGN9278 unconjugated Ab) VH: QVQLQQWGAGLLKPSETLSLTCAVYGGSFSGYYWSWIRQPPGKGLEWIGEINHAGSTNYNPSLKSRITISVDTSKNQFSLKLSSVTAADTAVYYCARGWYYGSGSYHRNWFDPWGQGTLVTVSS VL: EIVLTQSPGTLSLSPGERATLSCRASQSVYYSYLAWYQQKPGQAPRLLIYGASNRATGIPDRFSGSGSGTDFTLTISRLEPEDFAVYYCQQYGNSPWTFGQGTKVEIKR ?
## Result -1

## Task Now the same for REGN8070-M3190 (antibody, human IgG4 S228P, kappa, V domains shown, linker-payload M3190 (LP11) on Gln 3 of the N-terminal Q-tag LLQGSG, antibody-tethered drug conjugate; also called REGN8070 ATDC) VH: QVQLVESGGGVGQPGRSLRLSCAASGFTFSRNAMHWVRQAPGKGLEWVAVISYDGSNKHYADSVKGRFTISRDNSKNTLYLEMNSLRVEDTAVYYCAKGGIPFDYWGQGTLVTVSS VL: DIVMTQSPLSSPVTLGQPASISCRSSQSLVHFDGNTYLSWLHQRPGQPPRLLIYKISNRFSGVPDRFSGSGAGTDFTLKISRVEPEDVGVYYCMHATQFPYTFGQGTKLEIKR
## Result -1

## Task Would you kindly repeat that for REGN8072-M3190 (antibody, human IgG4 S228P, kappa, V domains shown, linker-payload M3190 (LP11) on Gln 3 of the N-terminal Q-tag LLQGSG, antibody-tethered drug conjugate; also called REGN8072 ATDC; anti-GLP1R mAb4-LP11) VH: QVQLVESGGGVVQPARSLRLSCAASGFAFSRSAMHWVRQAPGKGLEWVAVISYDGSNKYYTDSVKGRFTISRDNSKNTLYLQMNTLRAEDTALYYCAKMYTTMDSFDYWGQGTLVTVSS VL: DIQLTQSPSFLSASVGDRVTITCWASQGISSYLAWYQQKPGKAPKLLIYAASTLQSGVPSRFSGSGSGTEFTLTISSLQPEDFALYYCQQLNSYPRTFGQGTKVEIKR ?
## Result 1
